- Test system: Escherichia coli TOP10;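 note: peptides expressed intracellularly from a pBAD plasmid library in pooled LB shake-flask culture, induced with 0.3% L-arabinose, DNA abundance read by NGS, three biological replicates, DESeq2 with apeglm shrinkage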
- Procedure summary: shrunken log2 fold change of peptide-encoding DNA abundance (4.5 h post-induction vs induction); higher = less antimicrobial activity (less host growth inhibition)
- Setup conditions: time post-induction: 4.5 h; library: site-saturation at positions 5, 18, 19, 20
Observed property: shrunken log2 fold change
Provide a numeric answer; units are not to be included.

Asked: // fetch shrunken log2 fold change given entry RRIRLRPPRLPRPRPRPRPPPRP
Given back: 1.58

Asked: // fetch shrunken log2 fold change given entry RRIRYRPPRLPRPRPRPNVVPRP
Given back: -0.274

Asked: // fetch shrunken log2 fold change given entry RRIRDRPPRLPRPRPRPACSPRP
Given back: 0.386

Asked: // fetch shrunken log2 fold change given entry RRIRNRPPRLPRPRPRPCVSPRP
Given back: 0.0348

Asked: // fetch shrunken log2 fold change given entry RRIRYRPPRLPRPRPRPNERPRP
Given back: -0.0497

Asked: // fetch shrunken log2 fold change given entry RRIRNRPPRLPRPRPRPGSQPRP
Given back: 0.0302

Asked: // fetch shrunken log2 fold change given entry RRIRGRPPRLPRPRPRPCMCPRP
Given back: 0.263

Asked: // fetch shrunken log2 fold change given entry RRIRHRPPRLPRPRPRPMFFPRP
Given back: -0.347

Asked: // fetch shrunken log2 fold change given entry RRIRNRPPRLPRPRPRPWLDPRP
Given back: -0.029

Asked: // fetch shrunken log2 fold change given entry RRIRIRPPRLPRPRPRPEPRPRP
Given back: 0.563

Asked: // fetch shrunken log2 fold change given entry RRIRDRPPRLPRPRPRPTIEPRP
Given back: 0.324

Asked: // fetch shrunken log2 fold change given entry RRIRERPPRLPRPRPRPAKTPRP
Given back: -0.244

Asked: // fetch shrunken log2 fold change given entry RRIRWRPPRLPRPRPRPQIQPRP
Given back: -0.0544

Asked: // fetch shrunken log2 fold change given entry RRIRPRPPRLPRPRPRPRRYPRP
Given back: -0.0175

Asked: // fetch shrunken log2 fold change given entry RRIRDRPPRLPRPRPRPPGAPRP
Given back: 0.564

Asked: // fetch shrunken log2 fold change given entry RRIRWRPPRLPRPRPRPLSYPRP
Given back: -0.243

Asked: // fetch shrunken log2 fold change given entry RRIRIRPPRLPRPRPRPACFPRP
Given back: 0.199

Asked: // fetch shrunken log2 fold change given entry RRIRYRPPRLPRPRPRPYCCPRP
Given back: -0.145

Asked: // fetch shrunken log2 fold change given entry RRIRHRPPRLPRPRPRPKWWPRP
Given back: 0.0178

Asked: // fetch shrunken log2 fold change given entry RRIRFRPPRLPRPRPRPRWTPRP
Given back: 1.19

Asked: // fetch shrunken log2 fold change given entry RRIRGRPPRLPRPRPRPKTHPRP
Given back: 0.947

Asked: // fetch shrunken log2 fold change given entry RRIRWRPPRLPRPRPRPPPNPRP
Given back: 0.928

Asked: // fetch shrunken log2 fold change given entry RRIRGRPPRLPRPRPRPNYTPRP
Given back: -0.338

Asked: // fetch shrunken log2 fold change given entry RRIRGRPPRLPRPRPRPELRPRP
Given back: 1.71

Provenance of the data: the supplement of paper PMC9112550
